EXPERIMENT_SUMMARY: Plasma concentration in HIV-infected patient at 480 mg/m2, po administered every 12 hrs for 6 weeks co-administered with 120 mg/m2 of ritonavir and saquinavir measured 12 hrs after last dose
Assay type: ADME, organism-based
CONDITION_PARAMETERS: human
ASSAY_READOUT: concentration at 12 h (ng/mL)
Kindly provide the numeric value in ng/mL only, without the unit symbol.

GET /value?item= CC(C)(C)NC(=O)[C@@H]1C[C@@H]2CCCC[C@@H]2CN1C[C@@H](O)[C@H](Cc1ccccc1)NC(=O)[C@H](CC(N)=O)NC(=O)c1ccc2ccccc2n1 &field=concentration at 12 h returns 1820

====

EXPERIMENT_SUMMARY: AUC in HIV-infected patient at 400 mg/m2, po administered every 12 hrs for 2 weeks co-administered with 120 mg/m2 of ritonavir
Format: ADME, organism-based
CONDITION_PARAMETERS: human, plasma, in the assay text read “100 mg/m2 of ritonavir” for “120 mg/m2 of ritonavir”
ASSAY_READOUT: AUC (µg·h/mL)
# output: bare number, implied unit µg·h/mL

Cc1cccc(C)c1OCC(=O)N[C@@H](Cc1ccccc1)[C@@H](O)C[C@H](Cc1ccccc1)NC(=O)[C@H](C(C)C)N1CCCNC1=O [LOPINAVIR] yielded AUC of 157
